test system: SK-MEL-2; test: NCI tumour cell line growth inhibition, 48 h
The source made the active and inactive calls. No stated cut-off is given here; in the data, active = GI50 up to about 1.1 µM and inactive = higher.
Labels: active, inactive

>>> category_label("Cn1c(=O)c2nc(CCCCc3nc4ccccc4[nH]3)[nH]c2n(C)c1=O")
"inactive"
>>> category_label("Cc1nn(C)cc1P(=S)(c1ccccc1)c1ccccc1")
"inactive"
>>> category_label("Nc1ccc2c(c1)C(=O)c1c(F)cccc1-2")
"inactive"
>>> category_label("Cc1ccc(Nc2nc(C)c(C(/C=C/c3ccc(/C=C/C(=N/NC(=O)C[n+]4ccccc4)c4sc(Nc5ccc(C)cc5[N+](=O)[O-])nc4C)cc3)=N\\NC(=O)C[n+]3ccccc3)s2)c([N+](=O)[O-])c1")
"inactive"
>>> category_label("NC(Cc1c[nH]c2ccc([N+](=O)[O-])cc12)C(=O)O (configuration not stated)")
"inactive"
>>> category_label("CCOC(=O)c1nc2ccccc2nc1Nc1ccc(Cl)c(Cl)c1")
"inactive"
>>> category_label("Cn1nc(-c2ccccc2)c2c(/C=C/c3ccccc3)onc2c1=O")
"inactive"
>>> category_label("O=C(O)c1cccc(S(=O)(=O)NN2C(=O)CSC2c2ccc(Cl)cc2Cl)c1 (configuration not stated)")
"inactive"
>>> category_label("Cc1cc(C(=O)CBr)c(CN2C(=O)c3ccccc3C2=O)c(=O)n1C")
"inactive"
>>> category_label("O=C(Nc1ccccc1-c1nn(CO)c(=S)n(CO)c1=O)C(F)(F)F")
"inactive"
>>> category_label("CCc1nnc(S)n1/N=C\\c1ccc(-c2ccccc2[N+](=O)[O-])o1")
"inactive"
>>> category_label("O=C1/C(=C/c2cccc([N+](=O)[O-])c2)N=C(c2ccccc2)N1c1ccc2c(c1)Sc1cc(N3C(=O)/C(=C/c4cccc([N+](=O)[O-])c4)N=C3c3ccccc3)ccc1N2")
"inactive"
>>> category_label("Cc1cnc2c(c1)C(=O)C1=C(C2=O)C2OC(=O)CC2OC1(C)C (configuration not stated)")
"active"
>>> category_label("C=C1C(O)C2(O)OCC34C(CC5C(C)=CC(=O)C(O)C5(C)C23)OC(=O)C(OC(=O)C/C=C/CCCCCCCC)C14 (configuration not stated)")
"active"
>>> category_label("C[C@]12CCC(=O)C=C1CC[C@@H]1[C@@H]2CC[C@]2(C)C(=O)[C@H](n3ccnc3)C[C@@H]12")
"inactive"
>>> category_label("CCOC(=O)C1(Br)C(c2ccccc2)NC(=O)N(C2OC(COC(=O)c3ccccc3)C(OC(=O)c3ccccc3)C2OC(=O)c2ccccc2)C1(C)Br (configuration not stated)")
"inactive"
>>> category_label("C=CC1=C(C)c2cc3[nH]c(c4c5nc(cc6[nH]c(cc1n2)c(C)c6CC)C(C)=C5C(=O)[C@@H]4C(=O)OC)[C@@H](CCC(=O)O)[C@@H]3C")
"inactive"
